Please respond with reported pKi for every item in the list.
tested.target: Cytochrome P450 2D6 (Homo sapiens, UniProt P10635)
Sequence (P10635 whole entry): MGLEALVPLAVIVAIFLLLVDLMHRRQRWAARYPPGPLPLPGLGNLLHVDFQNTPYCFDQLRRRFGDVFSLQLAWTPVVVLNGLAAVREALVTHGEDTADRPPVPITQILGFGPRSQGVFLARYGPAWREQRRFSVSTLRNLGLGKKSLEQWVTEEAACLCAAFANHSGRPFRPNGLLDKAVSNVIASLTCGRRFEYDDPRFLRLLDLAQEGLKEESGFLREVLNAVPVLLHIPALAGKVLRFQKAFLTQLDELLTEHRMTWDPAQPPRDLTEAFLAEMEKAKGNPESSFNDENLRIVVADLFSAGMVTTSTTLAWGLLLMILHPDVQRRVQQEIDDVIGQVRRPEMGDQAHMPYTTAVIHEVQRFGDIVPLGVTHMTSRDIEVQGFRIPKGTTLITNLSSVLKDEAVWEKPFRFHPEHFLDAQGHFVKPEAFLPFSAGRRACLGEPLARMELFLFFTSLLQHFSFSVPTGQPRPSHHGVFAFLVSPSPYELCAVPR
experiment.summary: Inhibitory constant for cytochrome P450 2D6
Format: ADME
Answers are plain numbers, as −log10 of the molar value.

Data request: May I ask what pKi has been recorded for CN1[C@@H](CC(=O)c2ccccc2)CCC[C@H]1C[C@H](O)c1ccccc1 [LOBELINE] ?
Data returned: 6.92

Then there is this compound:
Data request: May I ask what pKi has been recorded for CC(C)N1CCC(c2ccccc2)(c2ccccc2)CC1 [PRODIPINE] ?
Data returned: 8.32

---

tested.target: Cytochrome P450 2D6 (Homo sapiens)
metric.name: Ki (µM)
Numbers only, in µM.

Data request: May I ask what Ki has been recorded for CCC1CN2CCC1CC2C(O)c1ccnc2ccccc12 (centres undefined) ?
Data returned: 3.2

Data request: Same thing, different molecule: CCC1CN2CCC1CC2[C@H](O)c1ccnc2ccccc12 (some centres undefined)
Data returned: 24

Data request: Same thing, different molecule: C=CC1CN2CCC1C[C@@H]2[C@@H](O)c1ccnc2ccccc12 (stereo in doubt; 10b)
Data returned: 16

Then there is this molecule:
Data request: May I ask what Ki has been recorded for C=CC1CN2CCC1C[C@@H]2[C@@H](O)c1ccnc2ccccc12 (stereo in doubt; 9b) ?
Data returned: 5.4

---

Please respond with reported Ki for every item in the list.
tested.target: Cytochrome P450 2D6 (Homo sapiens)
experiment.summary: Inhibitory effect on Bufuralol 1'-hydroxylation by human liver microsomes (Ki = apparent inhibition constant)
Format: ADME, Microsome

Would you please look over these solved cases?
Data request: May I ask what Ki has been recorded for C=CC1CN2CCC1CC2C(=O)c1ccnc2ccc(OC)cc12 (centres undefined) ?
Data returned: 0.72 µM

Data request: Same thing, different molecule: CCC1CN2CCC1CC2[C@@H](O)c1ccnc2ccc(OC)cc12 (some centres undefined) [DIHYDROQUINIDINE]
Data returned: 0.066 µM

Data request: Same thing, different molecule: C=CC1CN2CCC1C[C@@H]2[C@@H](O)c1ccnc2ccc(Cl)cc12 (some centres undefined)
Data returned: 0.52 µM

Continuing:
Data request: May I ask what Ki has been recorded for COC(=O)C1=CO[C@@H](C)[C@H]2C=[N+]3CCc4c([nH]c5ccccc45)[C@@H]3C[C@H]12 [CATHENAMINE] ?
Data returned: 3.2 µM

---

tested.target: Cytochrome P450 2D6 (Homo sapiens, UniProt P10635)
metric.name: pKi
One number for each entry, as −log10 of the molar value.

Would you please look over these solved cases?
Data request: Request: pKi, test system Cytochrome P450 2D6 (Homo sapiens, UniProt P10635), entry CCC1CN2CCC1CC2[C@H](O)c1ccnc2ccccc12 (some centres undefined)
Data returned: 5.02

Data request: Same thing, different compound: CCC1CN2CCC1CC2C(O)c1ccnc2ccccc12 (centres undefined)
Data returned: 5.55

Data request: Same thing, different compound: C=CC1CN2CCC1C[C@@H]2[C@@H](O)c1ccnc2ccccc12 (stereo in doubt; 9b)
Data returned: 5.46

Then there is this compound:
Data request: Request: pKi, test system Cytochrome P450 2D6 (Homo sapiens, UniProt P10635), entry C=CC1CN2CCC1C[C@@H]2[C@@H](O)c1ccnc2ccccc12 (stereo in doubt; 10b)
Data returned: 5.14

---

tested.target: Cytochrome P450 2D6 (Homo sapiens, UniProt P10635)
experiment.summary: Inhibition of partially purified cytochrome P450 2D6 1'-hydroxybufuralol formation
metric.name: Ki (µM)
Answers are plain numbers, in µM.

Data request: May I ask what Ki has been recorded for C=CC1CN2CCC1C[C@@H]2[C@@H](O)c1ccnc2ccccc12 (stereo in doubt; 9b) ?
Data returned: 2.6

Then there is this compound:
Data request: May I ask what Ki has been recorded for C=CC1CN2CCC1C[C@@H]2[C@@H](O)c1ccnc2ccccc12 (stereo in doubt; 10b) ?
Data returned: 25
